# System: OVCAR-4 ovarian
# Assay Details: NCI tumour cell line growth inhibition, 48 h
Readout Name: TGI

// worked examples, TGI included
Problem: May I ask what TGI has been recorded for C[C@]12CC(c3ccccc3O1)C(C#N)C(=O)N2 (some centres not stated) ?
Solution: > 100 µM

Problem: Now try c1ccc([C@@H]2N[C@@]3(CO[Si](c4ccccc4)(c4ccccc4)c4ccccc4)CC[C@H]4CN[C@@H]2[C@H]43)cc1 .
Solution: 29.3 µM

Continuing:
Problem: May I ask what TGI has been recorded for NC(=O)C12C3C4C1C1C2C3C41C(N)=O (configuration not stated) ?
Solution: > 100 µM

Problem: Now try CCc1ccc(/C(C)=N/NC(N)=S)cc1 .
Solution: > 100 µM

Problem: Now try O=C(CC1(O)C(=O)Nc2ccc(Br)cc21)c1ccc(C(=O)NCC2CCC3(CC2)OOC2(CCCCC2)OO3)cc1 (configuration not stated) .
Solution: 72.3 µM

Problem: Now try O=C1OC(c2ccccc2)=N/C1=C\c1c(O)cc(O)cc1O .
Solution: > 100 µM

Problem: Now try O=C(O)c1cc(-c2ccccc2O)nc2ccccc12 .
Solution: > 100 µM

Problem: Now try C/C(=N\NS(=O)(=O)c1ccc(C)cc1)C(CN(C)C)C(c1ccccc1)c1c(O)c2ccccc2oc1=O (configuration not stated) .
Solution: > 100 µM

Problem: Now try COc1ccc(/C=C2\N=C(c3ccccc3)N(Nc3nnc(NN4C(=O)/C(=C/c5ccc(OC)cc5)N=C4c4ccccc4)c4ccccc34)C2=O)cc1 .
Solution: > 100 µM

Problem: Now try COc1ccc(C2CC(=O)Oc3ccccc3O2)cc1 (configuration not stated) .
Solution: > 100 µM

Problem: Now try COC(=O)[C@H]1C=C[C@@H](C)n2c(=O)c3ccccc3c(=O)n21 .
Solution: > 100 µM

Problem: Now try CN1CCN(Cc2ccc(NC(=O)c3[nH]ncc3Nc3ncnc4sccc34)cc2)CC1 .
Solution: 3.92 µM

---

# Tested on: MOLT-4 leukemia
# Assay Details: NCI tumour cell line growth inhibition, 48 h
Reported values of TGI for individual entries

Problem: May I ask what TGI has been recorded for COC1(OC)CC2C(=O)N(Cc3ccccc3)C1CC2S(=O)(=O)c1ccccc1 (stereo not given) ?
Solution: > 100 µM

Continuing:
Problem: May I ask what TGI has been recorded for O=C(N=Nc1c(O)[nH]c2c(Cl)cc(Cl)cc12)c1ccncc1 ?
Solution: > 100 µM

Problem: Now try CC(=N/NC(=S)Nc1c(C)n(C)n(-c2ccccc2)c1=O)/C(C)=N\NC(=S)Nc1c(C)n(C)n(-c2ccccc2)c1=O .
Solution: > 100 µM

Problem: Now try COc1cccc(Cn2cc3c(c2)-c2oncc2CC3)c1 .
Solution: > 21.7 µM

Problem: Now try COc1ccc(-n2c3c(c4cc(O)ccc42)C(=O)c2ccccc2C3=O)cc1 .
Solution: > 100 µM

Problem: Now try Cn1c(=O)c2c(nc(C[N+]3([O-])CCOCC3)n2C)n(C)c1=O .
Solution: > 100 µM

Problem: Now try CCc1ccccc1-n1c2nc(=O)n(C)c(=O)c-2nc2ccccc21 .
Solution: 35.4 µM

Problem: Now try CC(C)C[C@H](NC(=O)CCc1ccccc1)B(O)O .
Solution: 11.4 µM

Problem: Now try CC(=O)NCC1(c2ccccc2)CCN(CC2COc3ccccc3O2)CC1 (stereo not given) .
Solution: > 100 µM

Problem: Now try Cc1ccc(S(=O)(=O)NC(=O)NCC(=O)NCC(=O)O)cc1 .
Solution: > 100 µM
